Hey, just so you know, these numbers are from patent US9540327B2.

Target: Rat Striatal Nicotinic Receptors ([^3H]MLA binding sites; α7) (Rattus norvegicus)
Construct: Whole brain, excluding cortex and cerebellum, was homogenized in 20 vol of ice-cold buffer; from tissue; host or cells: rat brain membranes (whole brain excluding cortex and cerebellum)
Sequence (Q05941 23-502): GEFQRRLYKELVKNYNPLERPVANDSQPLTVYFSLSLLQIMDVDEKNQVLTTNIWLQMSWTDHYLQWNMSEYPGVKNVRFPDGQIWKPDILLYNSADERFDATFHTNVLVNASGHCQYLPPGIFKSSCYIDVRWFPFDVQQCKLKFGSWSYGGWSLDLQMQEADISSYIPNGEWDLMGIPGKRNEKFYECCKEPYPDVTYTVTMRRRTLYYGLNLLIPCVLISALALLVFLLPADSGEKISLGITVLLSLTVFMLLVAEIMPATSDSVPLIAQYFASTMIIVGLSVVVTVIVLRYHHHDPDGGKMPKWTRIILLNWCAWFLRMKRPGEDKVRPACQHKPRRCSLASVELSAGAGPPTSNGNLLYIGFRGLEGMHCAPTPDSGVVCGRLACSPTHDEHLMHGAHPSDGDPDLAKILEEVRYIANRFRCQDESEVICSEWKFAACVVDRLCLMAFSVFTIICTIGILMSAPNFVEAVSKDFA
Assay: Inhibition of [^3H]methyllycaconitine binding to rat brain membranes
pKi: −log10 of the molar value.
assay_endpoint: pKi

See these solved cases before continuing.
{"molecule": "CN1CCC[C@@H]1c1ccc[n+](CCCc2ccc[n+](C)c2)c1 [GZ-530A]", "pKi": "< 4.00"}
{"molecule": "C[n+]1cccc(CCC[n+]2ccccc2)c1 [GZ-530B]", "pKi": "< 4.00"}
{"molecule": "C[n+]1ccccc1CCCc1cccc[n+]1C [GZ-528A]", "pKi": "< 4.00"}
{"molecule": "Cc1cc(C)c[n+](CCCc2ccc[n+](C)c2)c1 [GZ-529B]", "pKi": "< 4.00"}

Turning now to a further record.
Give the measured pKi of C[n+]1ccc(CCCc2cc[n+](C)cc2)cc1 [GZ-527B] .
< 4.00

====

Listed below: inhibition at 0.1 µM values for each entry.
Test system: Nicotine-evoked [^3H]Dopamine Release from Superfused Rat Striatal Slices
Experiment: Inhibition of nicotine-evoked [^3H]dopamine overflow from superfused rat striatal slices
Format: cell-based
Conditions: analog 100 nM; nicotine 10 μM; superfused rat striatal slices; read-out: Inhibition Nicotine-evoked [^3H]DA release (% inhibition at 100 nM)
Write the quantity with the unit trailing the number.

See these solved cases before continuing.
{"compound": "C[n+]1cccc(CCCc2ccc[n+](C)c2)c1 [GZ-527A]", "inhibition at 0.1 µM": "32%"}
{"compound": "C[n+]1ccccc1CCCc1cccc[n+]1C [GZ-528A]", "inhibition at 0.1 µM": "49%"}
{"compound": "CN1CCC[C@@H]1c1ccc[n+](CCCc2ccc[n+](C)c2)c1 [GZ-530A]", "inhibition at 0.1 µM": "43%"}

Lookup: inhibition at 0.1 µM / Nicotine-evoked [^3H]Dopamine Release from Superfused Rat Striatal Slices / Cc1cc(C)c[n+](CCCc2ccc[n+](C)c2)c1 [GZ-529B]
25%

Lookup: inhibition at 0.1 µM / Nicotine-evoked [^3H]Dopamine Release from Superfused Rat Striatal Slices / C[n+]1cccc(CCC[n+]2ccccc2)c1 [GZ-530B]
9%

====

Molecular target: Rat Striatal Nicotinic Receptors ([^3H]NIC binding sites; α4β2) (Rattus norvegicus, UniProt P09483+P12390)
Construct: Whole brain, excluding cortex and cerebellum, was homogenized in 20 vol of ice-cold buffer; from tissue; host or cells: rat brain membranes (whole brain excluding cortex and cerebellum)
Sequence (P09483 31-630): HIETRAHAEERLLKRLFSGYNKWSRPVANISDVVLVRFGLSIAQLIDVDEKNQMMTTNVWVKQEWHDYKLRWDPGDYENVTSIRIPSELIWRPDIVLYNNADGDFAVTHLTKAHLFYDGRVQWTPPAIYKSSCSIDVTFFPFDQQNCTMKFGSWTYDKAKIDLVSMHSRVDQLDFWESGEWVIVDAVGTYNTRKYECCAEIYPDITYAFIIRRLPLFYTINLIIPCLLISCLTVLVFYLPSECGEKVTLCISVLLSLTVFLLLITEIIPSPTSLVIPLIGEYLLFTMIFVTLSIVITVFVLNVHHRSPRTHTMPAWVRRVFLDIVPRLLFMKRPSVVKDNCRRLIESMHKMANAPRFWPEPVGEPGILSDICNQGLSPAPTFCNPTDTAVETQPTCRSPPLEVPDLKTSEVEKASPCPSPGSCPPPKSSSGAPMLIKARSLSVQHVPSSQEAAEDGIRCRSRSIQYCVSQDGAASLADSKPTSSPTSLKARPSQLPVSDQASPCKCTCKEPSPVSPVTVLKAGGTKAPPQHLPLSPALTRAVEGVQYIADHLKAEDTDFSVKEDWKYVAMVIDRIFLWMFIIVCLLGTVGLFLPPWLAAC
Sequence (P12390 25-500): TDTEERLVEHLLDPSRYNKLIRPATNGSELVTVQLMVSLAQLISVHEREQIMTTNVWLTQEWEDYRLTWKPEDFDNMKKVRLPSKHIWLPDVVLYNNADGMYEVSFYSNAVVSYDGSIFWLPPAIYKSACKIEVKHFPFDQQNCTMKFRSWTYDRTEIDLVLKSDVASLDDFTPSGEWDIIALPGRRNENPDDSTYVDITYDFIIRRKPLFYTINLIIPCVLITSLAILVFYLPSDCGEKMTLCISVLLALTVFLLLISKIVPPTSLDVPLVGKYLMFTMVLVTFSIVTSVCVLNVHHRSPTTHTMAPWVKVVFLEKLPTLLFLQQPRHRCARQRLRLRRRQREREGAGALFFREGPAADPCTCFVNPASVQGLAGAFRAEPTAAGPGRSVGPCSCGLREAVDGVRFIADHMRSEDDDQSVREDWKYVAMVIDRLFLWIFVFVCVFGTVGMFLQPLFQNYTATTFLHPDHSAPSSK
Assay: Inhibition of [^3H]nicotine binding to rat brain membranes
Protocol: Whole brain, excluding cortex and cerebellum, was homogenized in 20 vol of ice-cold buffer, containing (in mM): 2 HEPES, 11.8 NaCl, 0.48 KCl, 0.25 CaCl2 and 0.12 MgSO4, pH 7.5. Homogenate was centrifuged (25,000 g, 15 min, 4° C.). […] In [^3H]nicotine and [^3H]methyllycaconitine binding assays, nonspecific binding was determined in the presence of 10 μM cytisine and 10 μM nicotine, respectively. […] After 60 min, filter plates were top-sealed, and radioactivity determined using a Packard TopCount. […]
assay_endpoint: pKi
The read-out pKi is expressed as -log10 of concentration in moles per litre.

See these solved cases before continuing.
{"compound": "CN1CCC[C@@H]1c1ccc[n+](CCCc2ccc[n+](C)c2)c1 [GZ-530A]", "reported_result": 5.18}
{"compound": "C[n+]1ccc(CCCc2cc[n+](C)cc2)cc1 [GZ-527B]", "reported_result": 5.10}
{"compound": "C[n+]1cccc(CCC[n+]2ccccc2)c1 [GZ-530B]", "reported_result": 4.63}

Turning now to a further record.
Give the measured pKi of C[n+]1ccccc1CCCc1cccc[n+]1C [GZ-528A] .
5.09

====

Listed below: inhibition at 0.1 µM values for each entry.
Test system: Nicotine-evoked [^3H]Dopamine Release from Superfused Rat Striatal Slices
Assay: Inhibition of nicotine-evoked [^3H]dopamine overflow from superfused rat striatal slices
Format: cell-based
Conditions: analog 100 nM; nicotine 10 μM; superfused rat striatal slices; read-out: Inhibition Nicotine-evoked [^3H]DA release (% inhibition at 100 nM)
Response body: numeric value in %, unit text excluded.

{"compound": "Cc1cc(CCCc2cc(C)c[n+](C)c2)c[n+](C)c1 [GZ-528B]", "reported_result": 30}
{"compound": "C[n+]1ccc(CCCc2cc[n+](C)cc2)cc1 [GZ-527B]", "reported_result": 67}

Turning now to a further record.
Lookup: inhibition at 0.1 µM / Nicotine-evoked [^3H]Dopamine Release from Superfused Rat Striatal Slices / Cc1ccc[n+](CCCc2ccc[n+](C)c2)c1 [GZ-529A]
43
